Molecular target: T1, streptavidin (UniProt P22629 37-163, limits assumed)
T1 construct: amine-coupled to a CM5 chip for SPR; also called SA
T1 sequence (P22629 37-163 limits assumed): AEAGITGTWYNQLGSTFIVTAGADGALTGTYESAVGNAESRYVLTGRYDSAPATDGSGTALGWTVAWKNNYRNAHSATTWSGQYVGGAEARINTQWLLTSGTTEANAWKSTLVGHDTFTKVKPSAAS
Experiment: SPR, Biacore X100, streptavidin on CM5 chip, peptide in solution; second KD value printed for the same peptide
Outcome measure: Kd
Could you give the number and then its unit, please?

I'd like to know its Kd. The binder in question is H-EWVHPQFEQKAK-NH2 (free peptide) [NH2-EWVHPQFEQKAK-amide]
5.87 µM
